System: Acinetobacter baumannii
Assay: Antimicrobial activity against Acinetobacter baumannii ATCC 19606 assessed as inhibition of microbial growth incubated for 16 hrs by broth microdilution method
Format: functional
Conditions: ATCC 19606, 16 h
ATTRIBUTE_MEASURED: MIC

>  <MOLECULE>
NCC[C@H](O)C(=O)N[C@@H]1C[C@H](N)[C@@H](O[C@H]2O[C@H](CN)[C@@H](O)[C@H](O)[C@H]2O)[C@H](O)[C@H]1O[C@H]1O[C@H](CO)[C@@H](O)[C@H](N)[C@H]1O [AMIKACIN]

>  <ATTRIBUTE_MEASURED>
MIC

>  <MEASURED_RESULT>
2 µg/mL

$$$$
>  <MOLECULE>
C/C1=C\[C@H](O)C[C@]2(C)O[C@H]2C[C@@]2(C)C(=O)C=C(C(C)C)[C@@H]2CC1

>  <ATTRIBUTE_MEASURED>
MIC

>  <MEASURED_RESULT>
≥ 100 µg/mL

$$$$
>  <MOLECULE>
COC(=O)[C@H]1[C@H](C)O[C@@]2(O)[C@H](C)CC[C@@]3(C)OC(=O)C=C(C(C)C)[C@@H]3C[C@H](O)/C(C)=C/[C@H]12

>  <ATTRIBUTE_MEASURED>
MIC

>  <MEASURED_RESULT>
≥ 100 µg/mL

$$$$
>  <MOLECULE>
C/C1=C\[C@H](O)C[C@]2(C)O[C@H]2C[C@@]2(C)OC(=O)C=C(C(C)C)[C@@H]2CC1

>  <ATTRIBUTE_MEASURED>
MIC

>  <MEASURED_RESULT>
16 µg/mL

$$$$
>  <MOLECULE>
CO/N=C(\C(=O)N[C@@H]1C(=O)N2C(C(=O)O)=C(CSc3nc(=O)c(O)nn3C)CS[C@H]12)c1csc(N)n1 [CEFTRIAXONE]

>  <ATTRIBUTE_MEASURED>
MIC

>  <MEASURED_RESULT>
8 µg/mL

$$$$
>  <MOLECULE>
C/C1=C\[C@H](O)[C@H](O)C/C(C)=C/[C@@]2(C)OC(=O)C=C(C(C)C)[C@@H]2CC1

>  <ATTRIBUTE_MEASURED>
MIC

>  <MEASURED_RESULT>
≥ 100 µg/mL

$$$$
>  <MOLECULE>
CC(=O)C[C@H]1/C=C(\C)[C@@H](O)C[C@H]2C(C(C)C)=CC(=O)O[C@]2(C)CC[C@@H](C)C1=O

>  <ATTRIBUTE_MEASURED>
MIC

>  <MEASURED_RESULT>
≥ 100 µg/mL

$$$$
>  <MOLECULE>
C/C1=C\[C@H]2/C(=C(/C)CC[C@@]3(CO)C(=O)C=C(C(C)C)[C@@H]3CC1)OC(=O)[C@@H]2[C@H](C)O

>  <ATTRIBUTE_MEASURED>
MIC

>  <MEASURED_RESULT>
≥ 100 µg/mL

$$$$
